# Tested on: NCI-H522
# protocolNotes: relative viability (nuclei count vs DMSO), 5 days (fraction); higher = more cells survive
# setupConditions: first compound 0.1 µM
Would you kindly list relative viability for each of these compounds?
In your answer, state the number alone without any accompanying words.

Task item: // returns reported relative viability for input O=c1cc(N2CCOCC2)oc2c(-c3cccc4c3sc3ccccc34)cccc12 + Nc1ncn([C@H]2C[C@H](O)[C@@H](CO)O2)c(=O)n1 [Decitabine] (partner 2 µM)
Reply: 0.669

Task item: Dear colleague, I am looking for the recorded relative viability of the following compound: O=c1cc(N2CCOCC2)oc2c(-c3cccc4c3sc3ccccc34)cccc12 + N=C(N)NC(=N)NCCc1ccccc1 [Phenformin] (partner 250 µM)
Reply: 0.572

Task item: Item CCN(CC)CCCCNc1ncc2cc(-c3cc(OC)cc(OC)c3)c(NC(=O)NC(C)(C)C)nc2n1 + Cc1nc(Nc2ncc(C(=O)Nc3c(C)cccc3Cl)s2)cc(N2CCN(CCO)CC2)n1 [Dasatinib] (partner 0.075 µM) has what recorded relative viability?
Reply: 1

Task item: Would you kindly share the measured relative viability for CCN(CC)CCCCNc1ncc2cc(-c3cc(OC)cc(OC)c3)c(NC(=O)NC(C)(C)C)nc2n1 + O=C(c1cc(Cc2n[nH]c(=O)c3ccccc23)ccc1F)N1CCN(C(=O)C2CC2)CC1 [Olaparib] (partner 8 µM) ?
Reply: 0.708

Task item: Entry under review: O=c1cc(N2CCOCC2)oc2c(-c3cccc4c3sc3ccccc34)cccc12 + CC(=O)c1c(C)c2cnc(Nc3ccc(N4CCNCC4)cn3)nc2n(C2CCCC2)c1=O [Palbociclib] (partner 0.5 µM) . Reported relative viability?
Reply: 0.831

Task item: So what's the measured relative viability for this one? O=c1cc(N2CCOCC2)oc2c(-c3cccc4c3sc3ccccc34)cccc12 + CCNC(=O)c1noc(-c2cc(C(C)C)c(O)cc2O)c1-c1ccc(CN2CCOCC2)cc1 [Luminespib] (partner 0.01 µM)
Reply: 0.915

Task item: Endpoint output: relative viability of O=c1cc(N2CCOCC2)oc2c(-c3cccc4c3sc3ccccc34)cccc12 + Cc1cc(Nc2cc(N3CCN(C)CC3)nc(Sc3ccc(NC(=O)C4CC4)cc3)n2)n[nH]1 [Tozasertib] (partner 0.1 µM) . Value?
Reply: 0.594

Task item: Would you mind telling me what relative viability value was observed for CCN(CC)CCCCNc1ncc2cc(-c3cc(OC)cc(OC)c3)c(NC(=O)NC(C)(C)C)nc2n1 + N=C(N)NC(=N)NCCc1ccccc1 [Phenformin] (partner 250 µM) ?
Reply: 0.582

Task item: I would be grateful if you could share the reported relative viability for O=c1cc(N2CCOCC2)oc2c(-c3cccc4c3sc3ccccc34)cccc12 + Nc1nc2[nH]cc(CCc3ccc(C(=O)N[C@@H](CCC(=O)O)C(=O)O)cc3)c2c(=O)[nH]1 [Pemetrexed] (partner 0.2 µM) .
Reply: 1.08

====

# Tested on: NCI-H1395
# protocolNotes: relative viability (nuclei count vs DMSO), 5 days (fraction); higher = more cells survive
# setupConditions: first compound 2.53 µM
Class (by relative viability) -- b0: < 0.6; b1: ≥ 0.6 and < 0.7; b2: ≥ 0.7

Task item: Please indicate the class for O=c1cc(-c2cccc3c2Sc2ccccc2S3)oc(N2CCOCC2)c1 + COc1cccc2cc(-c3nc([C@H]4CC[C@H](C(=O)O)CC4)n4ncnc(N)c34)[nH]c12 [OSI-027] (partner 0.5 µM) based on its relative viability.
Reply: b0

Task item: Which band does O=c1cc(-c2cccc3c2Sc2ccccc2S3)oc(N2CCOCC2)c1 + N=C(N)NC(=N)NCCc1ccccc1 [Phenformin] (partner 250 µM) fall in?
Reply: b0

Task item: Please classify: COc1nc(C)cnc1NS(=O)(=O)c1cccnc1-c1ccc(-c2nnco2)cc1 [Zibotentan] + Cc1cc(Nc2cc(N3CCN(C)CC3)nc(Sc3ccc(NC(=O)C4CC4)cc3)n2)n[nH]1 [Tozasertib] (partner 0.1 µM)
Reply: b2

Task item: Categorize the following entry: COc1nc(C)cnc1NS(=O)(=O)c1cccnc1-c1ccc(-c2nnco2)cc1 [Zibotentan] + CS(=O)(=O)N1CCN(Cc2cc3nc(-c4cccc5[nH]ncc45)nc(N4CCOCC4)c3s2)CC1 [Pictilisib] (partner 1 µM)
Reply: b0

Task item: Lab log: COc1nc(C)cnc1NS(=O)(=O)c1cccnc1-c1ccc(-c2nnco2)cc1 [Zibotentan] + CC(=O)c1c(C)c2cnc(Nc3ccc(N4CCNCC4)cn3)nc2n(C2CCCC2)c1=O [Palbociclib] (partner 0.5 µM) — assign relative viability category
Reply: b1

Task item: Assign a category based on measured relative viability for O=c1cc(-c2cccc3c2Sc2ccccc2S3)oc(N2CCOCC2)c1 + O=C(CCCCCCC(=O)Nc1ccccc1)NO [Vorinostat] (partner 1 µM) and give only the class name.
Reply: b1

Task item: Band assignment needed for COc1nc(C)cnc1NS(=O)(=O)c1cccnc1-c1ccc(-c2nnco2)cc1 [Zibotentan] + COc1cc2c(Oc3ccc(NC(=O)C4(C(=O)Nc5ccc(F)cc5)CC4)cc3F)ccnc2cc1OCCCN1CCOCC1 [Foretinib] (partner 0.25 µM) please.
Reply: b2

Task item: # classify by relative viability band: COc1nc(C)cnc1NS(=O)(=O)c1cccnc1-c1ccc(-c2nnco2)cc1 [Zibotentan] + N=C(N)NC(=N)NCCc1ccccc1 [Phenformin] (partner 250 µM)
Reply: b0

Task item: Hi, small favor: classify COc1nc(C)cnc1NS(=O)(=O)c1cccnc1-c1ccc(-c2nnco2)cc1 [Zibotentan] + CC(=O)Nc1cccc(-n2c(=O)n(C3CC3)c(=O)c3c(Nc4ccc(I)cc4F)n(C)c(=O)c(C)c32)c1 [Trametinib] (partner 0.02 µM) by its relative viability when you get a moment.
Reply: b2

====

# Test system: NCI-H647
# protocolNotes: relative viability (nuclei count vs DMSO), 5 days (fraction); higher = more cells survive
# setupConditions: first compound 2.53 µM
Exercise: state measured relative viability for each of the compounds provided.
When you answer, write just the number.

Task item: Can you look up the measured relative viability of COc1nc(C)cnc1NS(=O)(=O)c1cccnc1-c1ccc(-c2nnco2)cc1 [Zibotentan] + CC(C)C[C@H](NC(=O)[C@H](Cc1ccccc1)NC(=O)c1cnccn1)B(O)O [Bortezomib] (partner 0.002 µM) for me?
Reply: 1.11

Task item: Please look up its relative viability: COc1nc(C)cnc1NS(=O)(=O)c1cccnc1-c1ccc(-c2nnco2)cc1 [Zibotentan] + Nc1nc2[nH]cc(CCc3ccc(C(=O)N[C@@H](CCC(=O)O)C(=O)O)cc3)c2c(=O)[nH]1 [Pemetrexed] (partner 0.2 µM)
Reply: 0.201

Task item: Param item = O=c1cc(-c2cccc3c2Sc2ccccc2S3)oc(N2CCOCC2)c1 + CC(=O)Nc1cccc(-n2c(=O)n(C3CC3)c(=O)c3c(Nc4ccc(I)cc4F)n(C)c(=O)c(C)c32)c1 [Trametinib] (partner 0.02 µM) ; retrieve measured relative viability.
Reply: 0.376

Task item: # input compound: COc1nc(C)cnc1NS(=O)(=O)c1cccnc1-c1ccc(-c2nnco2)cc1 [Zibotentan] + NC(=O)Nc1cc(-c2cccc(F)c2)sc1C(=O)N[C@H]1CCCNC1 [AZD7762] (partner 0.2 µM) ; wanted: its relative viability
Reply: 0.676

====

# System: NCI-H2347
# protocolNotes: relative viability (nuclei count vs DMSO), 5 days (fraction); higher = more cells survive
# setupConditions: first compound 1 µM
So I've got a bunch of compounds here, and I need their relative viability values.
Lab note: record the figure alone, no unit after it.

Task item: Would you kindly share the measured relative viability for O=c1cc(N2CCOCC2)oc2c(-c3cccc4c3sc3ccccc34)cccc12 + C[C@@H](Oc1cc(-c2cnn(C3CCNCC3)c2)cnc1N)c1c(Cl)ccc(F)c1Cl [Crizotinib] (partner 1 µM) ?
Reply: 0.76

Task item: # input compound: O=c1cc(N2CCOCC2)oc2c(-c3cccc4c3sc3ccccc34)cccc12 + CCNC(=O)c1noc(-c2cc(C(C)C)c(O)cc2O)c1-c1ccc(CN2CCOCC2)cc1 [Luminespib] (partner 0.01 µM) ; wanted: its relative viability
Reply: 0.323

Task item: relative viability for O=c1cc(N2CCOCC2)oc2c(-c3cccc4c3sc3ccccc34)cccc12 + Cc1nc(NC(=O)N2CCC[C@H]2C(N)=O)sc1-c1ccnc(C(C)(C)C(F)(F)F)c1 [Alpelisib] (partner 2 µM) ?
Reply: 1.02

Task item: Field request: relative viability | item: O=c1cc(N2CCOCC2)oc2c(-c3cccc4c3sc3ccccc34)cccc12 + CC1(C)CCC(c2ccc(Cl)cc2)=C(CN2CCN(c3ccc(C(=O)NS(=O)(=O)c4ccc(N[C@H](CCN5CCOCC5)CSc5ccccc5)c(S(=O)(=O)C(F)(F)F)c4)cc3)CC2)C1 [Navitoclax] (partner 0.5 µM)
Reply: 0.897

Task item: Tell me the measured relative viability of CCN(CC)CCCCNc1ncc2cc(-c3cc(OC)cc(OC)c3)c(NC(=O)NC(C)(C)C)nc2n1 + CCNC(=O)c1noc(-c2cc(C(C)C)c(O)cc2O)c1-c1ccc(CN2CCOCC2)cc1 [Luminespib] (partner 0.01 µM) , please.
Reply: 0.526

Task item: # lookup: relative viability of CCN(CC)CCCCNc1ncc2cc(-c3cc(OC)cc(OC)c3)c(NC(=O)NC(C)(C)C)nc2n1 + CC(=O)c1c(C)c2cnc(Nc3ccc(N4CCNCC4)cn3)nc2n(C2CCCC2)c1=O [Palbociclib] (partner 0.5 µM)
Reply: 0.387

Task item: Form field: reported relative viability of CCN(CC)CCCCNc1ncc2cc(-c3cc(OC)cc(OC)c3)c(NC(=O)NC(C)(C)C)nc2n1 + CC1(C)CCC(c2ccc(Cl)cc2)=C(CN2CCN(c3ccc(C(=O)NS(=O)(=O)c4ccc(N[C@H](CCN5CCOCC5)CSc5ccccc5)c(S(=O)(=O)C(F)(F)F)c4)cc3)CC2)C1 [Navitoclax] (partner 0.5 µM)
Reply: 0.676
